Where these numbers come from: paper PMC7826789

Listed here are compounds together with their documented Percent Control.
# Test system: JAK2(JH1domain-catalytic);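 further: KINOMEscan scanMAX binding as percent activity remaining versus control; lower means stronger binding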
# Measurement setup: Compound Concentration (nM):1000
Note: a bare number is incomplete; add the unit.

These recorded examples may help you get a feel for the data.
>  <Compound>
CCS(=O)(=O)c1ccc(OC)c(Nc2ncc(-c3cccc(F)c3)o2)c1 [GW621970X]

>  <Reported endpoint>
Percent Control

>  <Test value>
100%

$$$$
>  <Compound>
CN(C)CCNC(=O)Nc1ccc(N(C)c2ccnc(Nc3ccc(CS(C)(=O)=O)cc3)n2)cc1.Cl [GW830900A]

>  <Reported endpoint>
Percent Control

>  <Test value>
30%

$$$$
>  <Compound>
COc1cc(C)c(N(C)C(=O)CN(C)C)cc1Nc1nc(Nc2cccc(F)c2C(N)=O)c2cc[nH]c2n1

>  <Reported endpoint>
Percent Control

>  <Test value>
100%

$$$$

Please look at the following compound next.
Input line: Value lookup for Percent Control; key = CC1=C(C(=O)Nc2ccc3[nH]ncc3c2)C(c2ccc3ccccc3c2)CC(=O)N1 (stereo not shown) [GSK270822A]
Output line: 9.6%
